B1: TRIM43 (parent)
chain: RAQMIRNEYRKLHPVLHKEEKQHL

Variants of: B1
protocol-summary: protein stability index of a GFP-peptide fusion (GPS, HEK-293T) (PSI 1-6); higher = more stable;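 further: lentivirally expressed fusions sorted by FACS into six bins by GFP to DsRed ratio, PSI derived from sequencing read proportions per bin multiplied by bin number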
experimental-conditions: c terminus: a fixed tail appended
Param threshold (3) applies to protein stability index; output Met when value >= threshold, Not met when value < threshold.

Answered examples (8):
In: Entry `K21Q` : is its protein stability index no less than 3?
Out: Met

In: Is it the case that `A2K` has protein stability index reaching or exceeding 3?
Out: Met

In: Reported protein stability index at or above 3? `R1M`
Out: Not met

In: Check if protein stability index >= 3 (inclusive). Item: `R6D`
Out: Met

In: State whether the measured protein stability index reaches 3, counting equality as reaching it, for `L16N`
Out: Met

In: Does the variant `E20M` have recorded protein stability index that is 3 or more?
Out: Not met

In: Quick check, protein stability index >= 3? `A2P`
Out: Met

In: Kindly determine if protein stability index recorded for `L24P` is above or exactly 3.
Out: Met

Further cases:
In: Hi team, for `L12P` , is the recorded protein stability index at or above 3?
Out: Met

In: Decide: is the reported value of protein stability index for `K21M` equal to or greater than 3?
Out: Not met

In: Determine whether this variant has protein stability index no lower than 3: `N7F`
Out: Not met

In: Does protein stability index meet or surpass 3 for `I5K` ?
Out: Met

In: Determine whether this variant has protein stability index no lower than 3: `A2W`
Out: Not met
